The measurements presented in this section are drawn from patent US20240368275A1.

- Study Target: T1, human Nectin4-Fc fusion protein (human, UniProt Q96NY8 32-349)
- T1 construct: Recombinant protein coated in the scFv ELISA and captured on the anti-hFc chip in the scFv SPR; also called recombinant Nectin4-Fc fusion protein; human Nectin4-Fc protein; not shown: Fc part
- T1 sequence (looked up): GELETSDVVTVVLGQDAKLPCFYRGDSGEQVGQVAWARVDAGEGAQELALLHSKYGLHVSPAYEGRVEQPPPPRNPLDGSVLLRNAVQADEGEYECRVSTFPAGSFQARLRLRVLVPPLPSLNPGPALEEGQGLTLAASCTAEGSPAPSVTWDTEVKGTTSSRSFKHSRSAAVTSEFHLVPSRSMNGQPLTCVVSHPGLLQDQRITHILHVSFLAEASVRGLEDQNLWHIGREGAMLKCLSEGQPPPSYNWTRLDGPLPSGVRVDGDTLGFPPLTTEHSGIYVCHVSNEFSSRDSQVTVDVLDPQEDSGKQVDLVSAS
- Test Summary: ELISA, coated human Nectin4-Fc, scFv titrated, anti-Flag HRP
- Method: An ELISA assay was developed to determine the EC₅₀ of anti-Nectin4 antibodies. Briefly, 384 well plate was immobilized with human Nectin4-Fc at final concentration of 2 ug/mL in 1×PBS in total volume of 25 uL per well. […] The Nectin4 binding was detected by adding 25 uL of anti-Flag HRP diluted at 1:5000 in 1×PBST. […] The plate was read at OD450 nm Biotek plate reader and then plotted in Prism 8.1 software.
Measured Metric: EC50 (nM)
Write it as a number; the unit nM goes unstated.

Before answering, review these 2 worked examples.
- 2021EP032-D10 scFv (scFv, V domains shown) VH: EVQLVESGAEVKKPGSSVKVSCKASGGTFSSYAISWVRQAPGQGLEWMGGIIPIFGTANYAQKFQGRVAITADESTSTAYMELSSLRSEDTAVYYCARDLAIVYGSGSYYNHHPRIDYYYYGMDVWGQGTTVTVSS VL: QSVLTQPRSVSGSPGQSVTISCAGTSSDIGAYNYVSWYQQHPGKAPTLMINDVSKRPSGVPDRFSGSKSGNTASLTISGLQAEDEGDYYCFSYAGSYTLVFGGGTQLTVL: 8.76
- 2020EP034-B09 scFv (scFv, V domains shown) VH: EVQLVQSGAEVKKPGASVKVSCKASGYTFTGYYMHWVRQAPGQGLEWMGRINPNSGGTNYAQKFQGRVTMTRDTSISTAYMELSGLRSDDTAVYFCARVTYNIGWYIDYWGQGTLVTVSS VL: QAVVTQPPSVSVAPGKTATITCGGNNIGSKGVHWYQQKPGQAPVLVIYYDTDRPSGIPERLSGSNSGNTATLTISRVEAGDEADYYCQVWDSSSDHPVFGGGTKLTVL: 5.07

Looking up 2021EP030-C11 scFv (scFv, V domains shown) VH: QMQLVQSKPEVKKPGTSVKVSCKASGFTFTSSAVQWVRQARGQRLEWIGWIVVGSGNTNYAQKFQERVTITRDMSTSTAYMELSSLRSEDTAVYYCAADGDYDIEGALDYWGQGTLVTVSS VL: EIVLTQSPAILSLSPGERATLSCRASQSVSSYLAWYQQKPGQAPRLLIYDASNRATGIPARFSGSGSGTDFTLTISSLEPEDFAVYYCQQRSNWITFGGGTKVEIK , I see its EC50 listed as 291
